target or system: T1, 4H2774-AA
T1 chain: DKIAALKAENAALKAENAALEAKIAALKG
assay text: two-hybrid library CCmax;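 further: natural log of median RNA to DNA barcode read ratio; higher means stronger binding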
conditions used: mean of both orientations
result type: interaction score
Reply with just the number.

A selection of reference data follows.
>>> recorded_value("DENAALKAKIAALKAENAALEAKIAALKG [4H1878-AA]")
-1.27
>>> recorded_value("DENAALKAEIAALKAKIAALEAKNAALEG [4H1639-AA]")
-1.35
>>> recorded_value("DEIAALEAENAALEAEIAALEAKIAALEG [4H133-AA]")
0.342
>>> recorded_value("DKIAALKAENAALEAKIAALEAKNAALKG [4H2728-AA]")
-1.68
>>> recorded_value("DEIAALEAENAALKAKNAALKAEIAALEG [4H249-AA]")
1.92

The recorded interaction score for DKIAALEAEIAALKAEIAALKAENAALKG [4H2124-AA] is -1.38

The recorded interaction score for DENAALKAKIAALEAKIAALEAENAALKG [4H1828-AA] is -1.37
